Hey, just so you know, these numbers are from paper PMC9021956.

- SYSTEM_NAME: HLA-A0207 (Homo sapiens, UniProt P04439, D140Y/D185E/D98H/E176V/E277Q/G131W/G231S/I119V/I121R/I166T/I218V/L300P/L318F/N151K/N90K/P208A/P217A/Q86G/Q94H/R138H/R169H/T345S/Y123C)
- Construct: expressed in transfected cells; host or cells: HMy2.CIR
- ASSAY_EXPLANATION: cell-based
- Type: binding
- ASSAY_CONDITIONS: HLA-A0207 HMy2.CIR cells; competitor peptide 15μM; 24 hours; flow cytometry; read-out: 15μM Inhibition (%)
Residues, ends and D or L forms follow the SMILES beside them.
Record form. Attribute: inhibition at 15 µM. Fill in for each entry.
Lab book: enter the figure in %, no units written.

*Q* Quick one: inhibition at 15 µM for CC(C)C[C@H](NC(=O)[C@H](CO)NC(=O)[C@H](CC(C)C)NC(=O)[C@@H](N)Cc1c[nH]c2ccccc12)C(=O)N[C@@H](CC(C)C)C(=O)N[C@H](C(=O)N1CCC[C@H]1C(=O)N[C@@H](Cc1ccccc1)C(=O)N[C@H](C(=O)O)C(C)C)C(C)C [Epitope P7] ?
*A* 25

*Q* Same again, this time with CSCC[C@H](NC(=O)[C@H](CC(N)=O)NC(=O)[C@@H](NC(=O)[C@H](CC(N)=O)NC(=O)[C@@H](NC(=O)[C@H](Cc1ccc(O)cc1)NC(=O)[C@@H](N)CO)C(C)C)C(C)C)C(=O)NCC(=O)N[C@@H](CC(C)C)C(=O)O [Epitope P53] (H-SYVNVNMGL-OH; N-terminus and C-terminus assumed)
*A* 31

*Q* Same again, this time with CC[C@H](C)[C@H](NC(=O)CNC(=O)[C@H](CC(C)C)NC(=O)[C@H](CO)NC(=O)[C@H](CC(C)C)NC(=O)[C@H](CC(C)C)NC(=O)[C@@H](N)Cc1ccccc1)C(=O)N[C@@H](Cc1c[nH]cn1)C(=O)N[C@@H](CC(C)C)C(=O)O [Epitope P10]
*A* 31

*Q* Same again, this time with CSCC[C@H](NC(=O)[C@@H](N)CCSC)C(=O)N[C@@H](Cc1c[nH]c2ccccc12)C(=O)N[C@@H](Cc1ccc(O)cc1)C(=O)N[C@@H](Cc1c[nH]c2ccccc12)C(=O)NCC(=O)N1CCC[C@H]1C(=O)N[C@@H](CO)C(=O)N[C@@H](CC(C)C)C(=O)N[C@@H](Cc1ccc(O)cc1)C(=O)O [Epitope P108]
*A* 40

*Q* Same again, this time with CC[C@H](C)[C@H](NC(=O)[C@@H](NC(=O)[C@H](CO)NC(=O)[C@H](CC(C)C)NC(=O)[C@H](Cc1c[nH]c2ccccc12)NC(=O)[C@@H](N)C(C)C)C(C)C)C(=O)N[C@@H](Cc1c[nH]c2ccccc12)C(=O)N[C@@H](CCSC)C(=O)N[C@@H](CCSC)C(=O)N[C@@H](Cc1c[nH]c2ccccc12)C(=O)O [Epitope P51] (H-VWLSVIWMMW-OH; N-terminus and C-terminus assumed)
*A* 43

*Q* Same again, this time with CC(C)C[C@H](NC(=O)[C@H](CC(C)C)NC(=O)[C@@H](N)Cc1ccccc1)C(=O)N[C@@H](C)C(=O)N[C@@H](CCC(N)=O)C(=O)N[C@@H](Cc1ccccc1)C(=O)N[C@H](C(=O)N[C@@H](CO)C(=O)N[C@@H](C)C(=O)O)[C@@H](C)O [Epitope P76]
*A* 41

*Q* Same again, this time with CC(C)C[C@H](NC(=O)[C@@H](N)Cc1ccccc1)C(=O)N1CCC[C@H]1C(=O)N[C@@H](CO)C(=O)N[C@@H](CC(=O)O)C(=O)N[C@@H](Cc1ccccc1)C(=O)N[C@@H](Cc1ccccc1)C(=O)N1CCC[C@H]1C(=O)N[C@@H](CO)C(=O)O [Epitope P67] (H-FLPSDFFPS-OH; N-terminus and C-terminus assumed)
*A* 48
